- SYSTEM NAME: CK2A1 (CK2α/β) (Homo sapiens)
- PROCEDURE SUMMARY: CK2 kinase assay, CK2A1 (CK2α/β)
- Type: biochemical
- CONDITION SUMMARY: Table A; read-out: CK2A1 (CK2α/β) (IC50)
IC50 listing for selected molecules.
MEASURED QUANTITY: IC50 (nM)

In [3]: df
Out[3]:
                                   molecule  observed
0  N#Cc1cc(Nc2nc(NC3CC3)c3ncc(C#N)n3n2)c(Cl)c(N2CCC3CCN(C4COC4)C3C2)c1 (racemic) [Example 457]       4.9
1  CCNc1nc(Nc2cc(C#N)cc(N3CC[C@@H](NC(=O)OC)C(NCC(C)(C)O)C3)c2Cl)nn2c(C#N)cnc12 (stereo in doubt) [Example 760]       1.2
2  CC(C)(O)C1CN(C2CCN(c3cc(C#N)cc(Nc4nc(NC5CC5)c5ncc(C#N)n5n4)c3Cl)CC2)CCO1 (racemic) [Example 148]      1.03
3  N#Cc1cc(Nc2nc(NC3CC3)c3ncc(C#N)n3n2)c(Cl)c(N2CCN(C(=O)OCC3CCCO3)CC2)c1 (stereo not drawn) [Example 534]      0.51
4  N#Cc1cc(Nc2nc(NC3CC3)c3ncc(C#N)n3n2)c(Cl)c(N2CCN(C3CN(C(=O)CO)C3)CC2)c1 [Example 488]       0.6
5  CCNc1nc(Nc2cc(C#N)cc(N3CCC4(CC3)CN(C)C(=O)O4)c2Cl)nn2c(C#N)cnc12 (racemic) [Example 781]      0.71

###

- SYSTEM NAME: CK2A1 (CK2α/β) (Homo sapiens, UniProt P68400)
- Sequence (P68400 whole entry, species assumed): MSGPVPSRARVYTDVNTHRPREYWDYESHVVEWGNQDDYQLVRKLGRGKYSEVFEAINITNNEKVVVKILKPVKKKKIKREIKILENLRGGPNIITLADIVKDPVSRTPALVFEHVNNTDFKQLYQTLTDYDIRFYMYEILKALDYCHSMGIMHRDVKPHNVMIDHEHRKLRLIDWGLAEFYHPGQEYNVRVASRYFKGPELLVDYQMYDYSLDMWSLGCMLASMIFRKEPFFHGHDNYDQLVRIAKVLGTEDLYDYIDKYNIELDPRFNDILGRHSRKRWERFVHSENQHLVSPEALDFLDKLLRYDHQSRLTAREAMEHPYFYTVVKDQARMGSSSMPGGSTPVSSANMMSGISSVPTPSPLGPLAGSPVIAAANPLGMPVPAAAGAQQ
- Sequence (P67870 whole entry partner, species assumed): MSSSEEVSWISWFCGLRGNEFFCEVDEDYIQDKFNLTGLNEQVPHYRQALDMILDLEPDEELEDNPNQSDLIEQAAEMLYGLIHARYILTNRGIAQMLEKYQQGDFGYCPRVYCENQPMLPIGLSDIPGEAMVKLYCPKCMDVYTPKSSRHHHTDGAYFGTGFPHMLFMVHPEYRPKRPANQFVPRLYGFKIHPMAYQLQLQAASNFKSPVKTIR
- PROCEDURE SUMMARY: CK2 kinase assay, CK2A1 (CK2α/β)
- Assay type: biochemical
- CONDITION SUMMARY: Table A; read-out: CK2A1 (CK2α/β) (IC50)
MEASURED QUANTITY: IC50 (nM)

In [3]: df
Out[3]:
                                   compound  units_symbol  observed
0  N#Cc1cc(Nc2nc(NC3CC3)c3ncc(C#N)n3n2)c(Cl)c(N2CCN(C(=O)CN3CCOCC3)CC2)c1 [Example 100]            nM      0.55
1  COC(=O)N[C@@H]1CN(c2cc(C#N)cc(Nc3nc(NC4CC4)c4ncc(C#N)n4n3)c2Cl)C[C@H]1O (racemic) [Example 9]            nM      0.66
2  CC(=O)N1CCC(C(F)c2cc(C#N)cc(Nc3nc(NC4CC4)c4ncc(C#N)n4n3)c2Cl)CC1 (stereo not shown) [Example 663]            nM      0.77
3  CCNc1nc(Nc2cc(C#N)cc(C3CCN(C(C)C(N)=O)CC3)c2Cl)nn2c(C#N)cnc12 (racemic) [Example 640]            nM      2.22

###

Each entry below carries its recorded IC50.
- SYSTEM NAME: CK2A1 (CK2α/β) (Homo sapiens)
- PROCEDURE SUMMARY: CK2 kinase assay, CK2A1 (CK2α/β)
- Format: biochemical
- CONDITION SUMMARY: Table A; read-out: CK2A1 (CK2α/β) (IC50)
MEASURED QUANTITY: IC50 (nM)

>>> print(df.to_string())
                                    compound  measured_quantity  observed
 0  CC(CC(C)c1cc(Cl)c(Nc2nc(NC3CC3)c3ncc(C#N)n3n2)cc1C#N)NCC(F)(F)F (centres unmarked)               IC50      25.4
 1  CCNc1nc(Nc2cc(C#N)cc(N3CCN(C4CN(C(C)=O)C4)CC3)c2Cl)nn2c(C#N)cnc12               IC50      0.91
 2  N#Cc1cc(Nc2nc(NC3CC3)c3ncc(C#N)n3n2)c(Cl)cc1CCCN1CC(O)C1               IC50       0.7
 3  CC(C)(O)CNCC(O)c1cc(C#N)cc(Nc2nc(NC3CC3)c3ncc(C#N)n3n2)c1Cl (centres unmarked)               IC50      1.81
 4  N#Cc1cc(Nc2nc(NC3CC3)c3ncc(C#N)n3n2)c(Cl)c([C@H]2CCC[C@@H](N3CC(O)C3)C2)c1 (single isomer, unassigned) [Example 731]               IC50      1.46
 5  COC(=O)N[C@H]1CCN(c2cc(C#N)cc(Nc3nc(NC4CC4)c4ncc(C#N)n4n3)c2Cl)C[C@H]1NC(C)C               IC50      4.43
 6  CCNc1nc(Nc2ccc3c(c2)c(C#N)cn3C2CCN(C[C@@H](O)CN3CCOCC3)CC2)nn2c(C#N)cnc12               IC50      0.35
 7  [2H]C1(N2CCC(c3cc(C#N)cc(Nc4nc(NC5CC5)c5ncc(C#N)n5n4)c3Cl)CC2)COC1               IC50      0.95
 8  N#Cc1cc(Nc2nc(NC3CC3)c3ncc(C#N)n3n2)c(Cl)c(N2CC3CNCC3C2)c1 (centres unmarked)               IC50      0.49
 9  N#Cc1cc(Nc2nc(NC3CC3)c3ncc(C#N)n3n2)c(Cl)c(N2CCN(C(=O)C3CC3)CC2)c1               IC50      0.55
10  N#Cc1cc(Nc2nc(NC3CC3)c3ncc(C#N)n3n2)c(Cl)c(N2CCC(C3COC3)CC2)c1               IC50       3.2
11  CC(C)(F)C(=O)N1CC(N2CCN(c3cc(C#N)cc(Nc4nc(NC5CC5)c5ncc(C#N)n5n4)c3Cl)CC2)C1               IC50      3.93
12  CN(C)C(=O)C1CN(c2cc(C#N)cc(Nc3nc(NC4CC4)c4ncc(C#N)n4n3)c2Cl)CCN1CC(O)CF (single isomer, unassigned) [Example 316]               IC50      1.87
13  N#Cc1cc(Nc2nc(NC3CC3)c3ncc(C#N)n3n2)c(Cl)c(N2CCC(N[C@H]3CC[C@H](O)C3)CC2)c1 (racemic)               IC50      0.69
